System: B. catarrhalis W-0500
ASSAY COMMENT: Antibacterial activity (MIC), agar plate dilution method
Assay type: cell-based
RUN CONDITIONS: Moraxella catarrhalis, W0500; 37° C., 20 hours; blood agar seed culture; B. catarrhalis W-0500; read-out: Antibacterial activity (MIC)
MEASURED ENDPOINT: MIC (µg/mL)

• CCC(=O)O[C@@H]1CC(=O)O[C@H](C)C/C=C/C=C/C(=O)[C@H](C)C[C@H](CC=O)[C@H](O[C@@H]2O[C@H](C)[C@@H](O[C@H]3C[C@@](C)(OC)[C@@H](OCCC(C)C)[C@H](C)O3)[C@H](N(C)C)[C@H]2O)[C@H]1OC = 0.78
• CCC(=O)O[C@@H]1CC(=O)O[C@H](C)C/C=C/C=C/C(=O)[C@H](C)C[C@H](CC=O)[C@H](O[C@@H]2O[C@H](C)[C@@H](O[C@H]3C[C@@](C)(OC)[C@@H](OCCCC(C)C)[C@H](C)O3)[C@H](N(C)C)[C@H]2O)[C@H]1OC = 1.56
• CCC(=O)O[C@@H]1CC(=O)O[C@H](C)C/C=C/C=C/[C@H](OC(C)=O)[C@H](C)C[C@H](CC=O)[C@H](O[C@@H]2O[C@H](C)[C@@H](O[C@H]3C[C@@](C)(OC(C)=O)[C@@H](OC(=O)CC)[C@H](C)O3)[C@H](N(C)C)[C@H]2O)[C@H]1OC [Miokamycin, miokamycin, reference compound] = 1.56
• CCO[C@H]1[C@H](C)O[C@@H](O[C@H]2[C@H](N(C)C)[C@@H](O)[C@H](O[C@H]3[C@@H](CC=O)C[C@@H](C)C(=O)/C=C/C=C/C[C@@H](C)OC(=O)C[C@@H](OC(=O)CC)[C@@H]3OC)O[C@@H]2C)C[C@@]1(C)OC = 3.13

---

Recorded below: MIC, system Sta. aureus 209P JC-1.
MEASURED ENDPOINT: MIC (µg/mL)

* C=CCO[C@H]1[C@H](C)O[C@@H](O[C@H]2[C@H](N(C)C)[C@@H](O)[C@H](O[C@H]3[C@@H](CC=O)C[C@@H](C)C(=O)/C=C/C=C/C[C@@H](C)OC(=O)C[C@@H](OC(=O)CC)[C@@H]3OC)O[C@@H]2C)C[C@@]1(C)OC | 3.13
* CCC(=O)O[C@@H]1CC(=O)O[C@H](C)C/C=C/C=C/C(=O)[C@H](C)C[C@H](CC=O)[C@H](O[C@@H]2O[C@H](C)[C@@H](O[C@H]3C[C@@](C)(OC)[C@@H](OCc4ccccc4)[C@H](C)O3)[C@H](N(C)C)[C@H]2O)[C@H]1OC | 0.2
* CCC(=O)O[C@@H]1CC(=O)O[C@H](C)C/C=C/C=C/C(=O)[C@H](C)C[C@H](CC=O)[C@H](O[C@@H]2O[C@H](C)[C@@H](O[C@H]3C[C@@](C)(OC)[C@@H](OCCC(C)C)[C@H](C)O3)[C@H](N(C)C)[C@H]2O)[C@H]1OC | 0.2
* CCC(=O)O[C@@H]1CC(=O)O[C@H](C)C/C=C/C=C/C(=O)[C@H](C)C[C@H](CC=O)[C@H](O[C@@H]2O[C@H](C)[C@@H](O[C@H]3C[C@@](C)(OC)[C@@H](OCC=C(C)C)[C@H](C)O3)[C@H](N(C)C)[C@H]2O)[C@H]1OC | 0.78
* CCO[C@H]1[C@H](C)O[C@@H](O[C@H]2[C@H](N(C)C)[C@@H](O)[C@H](O[C@H]3[C@@H](CC=O)C[C@@H](C)C(=O)/C=C/C=C/C[C@@H](C)OC(=O)C[C@@H](OC(=O)CC)[C@@H]3OC)O[C@@H]2C)C[C@@]1(C)OC | 3.13
* CCCCCCO[C@H]1[C@H](C)O[C@@H](O[C@H]2[C@H](N(C)C)[C@@H](O)[C@H](O[C@H]3[C@@H](CC=O)C[C@@H](C)C(=O)/C=C/C=C/C[C@@H](C)OC(=O)C[C@@H](OC(=O)CC)[C@@H]3OC)O[C@@H]2C)C[C@@]1(C)OC | 0.78
* CCCCO[C@H]1[C@H](C)O[C@@H](O[C@H]2[C@H](N(C)C)[C@@H](O)[C@H](O[C@H]3[C@@H](CC=O)C[C@@H](C)C(=O)/C=C/C=C/C[C@@H](C)OC(=O)C[C@@H](OC(=O)CC)[C@@H]3OC)O[C@@H]2C)C[C@@]1(C)OC | 0.2
* CCC(=O)O[C@@H]1CC(=O)O[C@H](C)C/C=C/C=C/[C@H](OC(C)=O)[C@H](C)C[C@H](CC=O)[C@H](O[C@@H]2O[C@H](C)[C@@H](O[C@H]3C[C@@](C)(OC(C)=O)[C@@H](OC(=O)CC)[C@H](C)O3)[C@H](N(C)C)[C@H]2O)[C@H]1OC [Miokamycin, miokamycin, reference compound] | 0.2
* CCC(=O)O[C@@H]1CC(=O)O[C@H](C)C/C=C/C=C/C(=O)[C@H](C)C[C@H](CC=O)[C@H](O[C@@H]2O[C@H](C)[C@@H](O[C@H]3C[C@@](C)(OC)[C@@H](OCCCC(C)C)[C@H](C)O3)[C@H](N(C)C)[C@H]2O)[C@H]1OC | 0.39

---

Tested on: S. pneumoniae IP692
ASSAY COMMENT: Antibacterial activity (MIC), agar plate dilution method
Assay type: cell-based
RUN CONDITIONS: Streptococcus pneumoniae, 37° C., 20 hours, blood agar seed culture
MEASURED ENDPOINT: MIC (µg/mL)

- CCC(=O)O[C@@H]1CC(=O)O[C@H](C)C/C=C/C=C/C(=O)[C@H](C)C[C@H](CC=O)[C@H](O[C@@H]2O[C@H](C)[C@@H](O[C@H]3C[C@@](C)(OC)[C@@H](OCCCC(C)C)[C@H](C)O3)[C@H](N(C)C)[C@H]2O)[C@H]1OC: 0.2
- CCCCCCO[C@H]1[C@H](C)O[C@@H](O[C@H]2[C@H](N(C)C)[C@@H](O)[C@H](O[C@H]3[C@@H](CC=O)C[C@@H](C)C(=O)/C=C/C=C/C[C@@H](C)OC(=O)C[C@@H](OC(=O)CC)[C@@H]3OC)O[C@@H]2C)C[C@@]1(C)OC: 0.2
- CCC(=O)O[C@@H]1CC(=O)O[C@H](C)C/C=C/C=C/C(=O)[C@H](C)C[C@H](CC=O)[C@H](O[C@@H]2O[C@H](C)[C@@H](O[C@H]3C[C@@](C)(OC)[C@@H](OCCC(C)C)[C@H](C)O3)[C@H](N(C)C)[C@H]2O)[C@H]1OC: 0.1
- CCC(=O)O[C@@H]1CC(=O)O[C@H](C)C/C=C/C=C/[C@H](OC(C)=O)[C@H](C)C[C@H](CC=O)[C@H](O[C@@H]2O[C@H](C)[C@@H](O[C@H]3C[C@@](C)(OC(C)=O)[C@@H](OC(=O)CC)[C@H](C)O3)[C@H](N(C)C)[C@H]2O)[C@H]1OC [Miokamycin, miokamycin, reference compound]: 0.2

Attribution: patent US5444174A
